B1: ZNF8 (parent)
chain: RIHTGERPYMCKECGKAFSQNSSL

Variants of: B1
PROTOCOL DESCRIPTION: protein stability index of a GFP-peptide fusion (GPS, HEK-293T) (PSI 1-6); higher = more stable;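 note: lentivirally expressed fusions sorted by FACS into six bins by GFP to DsRed ratio, PSI derived from sequencing read proportions per bin multiplied by bin number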
CONDITION SET: c terminus: a fixed tail appended
// false (0) strictly below 3 in protein stability index; true (1) otherwise

[in] Test whether the variant `Y9L` records protein stability index of 3 or higher.
[out] false (0)

[in] Next: `Y9G`
[out] true (1)

[in] Next: `S23Y`
[out] false (0)

[in] Next: `S23N`
[out] false (0)

[in] Next: `K16A`
[out] false (0)

[in] Next: `S23E`
[out] false (0)

[in] Next: `S23T`
[out] false (0)

[in] Next: `G15A`
[out] true (1)

[in] Next: `G15E`
[out] true (1)

[in] Next: `Q20V`
[out] false (0)

[in] Next: `M10K`
[out] false (0)

[in] Next: `L24Y`
[out] false (0)

[in] Next: `G15Q`
[out] true (1)

[in] Next: `A17T`
[out] true (1)

[in] Next: `C14K`
[out] true (1)

[in] Next: `K12M`
[out] false (0)

[in] Next: `F18R`
[out] true (1)

[in] Next: `H3K`
[out] false (0)

[in] Next: `I2V`
[out] false (0)

[in] Next: `P8Y`
[out] false (0)

[in] Next: `Y9C`
[out] true (1)

[in] Next: `F18G`
[out] true (1)

[in] Next: `H3T`
[out] false (0)

[in] Next: `R1G`
[out] true (1)

[in] Next: `N21Q`
[out] false (0)

[in] Next: `N21S`
[out] false (0)

[in] Next: `R7T`
[out] true (1)

[in] Next: `N21T`
[out] false (0)

[in] Next: `F18N`
[out] true (1)

[in] Next: `K12F`
[out] false (0)

[in] Next: `R7E`
[out] true (1)

[in] Next: `S19H`
[out] false (0)

[in] Next: `K12H`
[out] false (0)

[in] Next: `A17D`
[out] false (0)

[in] Next: `C14T`
[out] false (0)

[in] Next: `G5Q`
[out] false (0)

[in] Next: `P8I`
[out] false (0)

[in] Next: `C14N`
[out] true (1)

[in] Next: `Q20R`
[out] false (0)

[in] Next: `E6V`
[out] false (0)

[in] Next: `I2E`
[out] false (0)

[in] Next: `S22N`
[out] false (0)

[in] Next: `R1C`
[out] true (1)
